Ref: the supplement of paper PMC10515830

System: Danio rerio larvae (5 dpf)
ASSAY METHOD TEXT: difference in excitability vs DMSO (percentage points); higher = more excitable than DMSO
EXPERIMENTAL CONTEXT: 10 µM; exposure time 6 h
Label 1 when difference in excitability is at or above 6; anything below gets 0.

MOLECULE | GROUP LABEL
COc1ccccc1Oc1c(NS(=O)(=O)c2ccc(C(C)(C)C)cc2)nc(-c2ncccn2)nc1OCCO [Bosentan] | 1
COc1ccc(CC(C)NCC(O)c2ccc(O)c(NC=O)c2)cc1 (stereo unspecified) [Formoterol (hemifumarate hydrate)] | 1
CCCCCCCCCCC[C@@H](C[C@@H]1OC(=O)[C@H]1CCCCCC)OC(=O)[C@H](CC(C)C)NC=O [Orlistat] | 0
Nc1ccc(O)c(C(=O)O)c1 [5-Aminosalicylic Acid] | 0
CCc1cc(C(N)=S)ccn1 [Ethionamide] | 0

Ask: Assess whether reported difference in excitability for CC(C)OC(=O)C(C)(C)Oc1ccc(C(=O)c2ccc(Cl)cc2)cc1 [Fenofibrate] sits at 6 or higher.
Reply: 1

Ask: Confirm if difference in excitability reported for the molecule Nc1ccc(S(=O)(=O)c2ccc(N)cc2)cc1 [Dapsone] is 6 or above.
Reply: 0

Ask: Check if difference in excitability >= 6 (inclusive). Item: CO[C@H]1C(=O)[C@]2(C)[C@@H](OC)C[C@H]3OC[C@@]3(OC(C)=O)[C@H]2[C@H](OC(=O)c2ccccc2)[C@]2(O)C[C@H](OC(=O)[C@H](O)[C@@H](NC(=O)OC(C)(C)C)c3ccccc3)C(C)=C1C2(C)C [Cabazitaxel]
Reply: 1
